method notes: viability loss with induced miR-34 in A549 – imaging, A549 dox-inducible miR-34, nuclei and caspase counts, primary screen (AID 1347080)
conditions used: A549 miR-34 inducible, Hoechst nuclei count, 48 h; measured here: total cells with miR-34 induction; stronger effect = lower value
The entries below come with measured cell count values attached.
// return a plain number; no unit text

Consider the worked cases shown below.
| compound | cell count |
| --- | --- |
| BrC1C(Br)C(Br)C(Br)C(Br)C1Br (stereo not given) | 7970 |
| O=C(O)C1(Cc2cccc(Nc3nccs3)n2)CCC(Oc2cccc(Cl)c2F)CC1 (stereo not given) | 3320 |
| CC(C)(C)Cn1c(N)nc2ccc(-c3[nH]c(C(C)(C)C)nc3-c3ccc(F)cc3)nc21 | 5480 |
| CN1CCN(C2=Cc3ccccc3Oc3ccc(Cl)cc32)CC1 | 6800 |

Now consider the entry below.
For reference, reported cell count for `CCCCCCCC(=O)CC[C@@H]1[C@@H](C/C=C\CCCC(=O)OC(C)C)[C@@H](O)C[C@H]1O` stands at 5890

----------
method notes: growth inhibition, single agents and combos, ICB984, cell-based, cisplatin or BGB combos, synergistic combos for chromothripsis tumors (AID 1671451);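 also: cells exposed for 96 hours before readout; 0% = vehicle DMSO and 100% = killing by high DMSO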
conditions used: ICB984 medulloblastoma cells, drug combinations, BGB IC20 combo, at 0.005 µM, stronger effect = higher value
This section presents compounds with their documented inhibition values.
Number only, in %; omit the unit.

Example compounds with recorded inhibition:
| compound structure | readout | result value |
| --- | --- | --- |
| Cc1cn([C@@H]2O[C@H](CO)[C@@H](O)[C@@H]2F)c(=O)[nH]c1=O | inhibition | -11.3 |
| CS(=O)(=O)c1ccc(-c2nnc(/C=C/c3nnc(-c4ccc(C#N)cc4)o3)n2-c2ccccc2Cl)nc1 | inhibition | -3.28 |
| C[C@]12CCCN1CC1=NNC(=O)c3cc(F)cc4[nH]c2c1c34 | inhibition | -2.46 |
| Nc1ccc(-c2ccc3ncc4ccc(=O)n(-c5cccc(C(F)(F)F)c5)c4c3c2)cn1 | inhibition | 18.5 |
| CN(C)C/C=C/C(=O)Nc1ccc(C(=O)Nc2cccc(Nc3ncc(Cl)c(-c4c[nH]c5ccccc45)n3)c2)cc1 | inhibition | 97.6 |
| C=C1[C@H](CO)[C@@H](O)C[C@@H]1n1cnc2c(=O)[nH]c(N)nc21 | inhibition | -16 |
| c1cc(Nc2cc(C3CC3)[nH]n2)nc(Nc2ccc3nc[nH]c3c2)n1 | inhibition | 91.8 |
| O=C(COc1cccc2c(=O)[nH]ccc12)c1ccccc1 | inhibition | -2.15 |

inhibition reading for `Nc1ncnc2c1c(-c1cnc3[nH]ccc3c1)nn2C1CCCC1` : 3.47

----------
method notes: viability loss in pontine glioma line – cell-based, SU-DIPG-XIII, MIPE4.0, CellTiter-Glo, qHTS, dose response (AID 1347061);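 also: cells exposed to compound for 48 hours before readout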
conditions used: CellTiter-Glo ATP luminescence
Inconclusive results are not listed. Active and inactive are the calls of the source. Cut-off not given; nearly all actives show AC50 up to about 37 µM.
Your response should consist of one outcome taken from true for active, false for inactive

# count of solved cases: 3
| compound structure | class assignment |
| --- | --- |
| Nc1nc2c(c(=O)[nH]1)N(C=O)[C@H](CNc1ccc(C(=O)N[C@@H](CCC(=O)O)C(=O)O)cc1)CN2 | false |
| CC(C)C[C@H](CC(=O)O)C(=O)N[C@@H](Cc1c[nH]c2ccccc12)C(=O)N[C@@H](C)c1ccccc1 | false |
| COc1ccc(Nc2cc(-c3cnc(N)nc3)nc(N3CCOCC3)n2)cn1 | true |

Tell me the assay call for `C[C@H](NCc1ccc2c(c1)nc(NC(=O)c1ccc(-c3cn[nH]c3)s1)n2CCc1ccccc1)C(C)(C)C` please.
true

Outcome logged for `CC(C)c1noc(N2CCC(COc3ccc(-c4ccc(S(C)(=O)=O)cc4)nc3)CC2)n1` in this assay:
false

Hi, sorry to bother you, what did the test record for `NC(=O)Nc1cc(-c2ccc(CN3CCOCC3)cc2)sc1C(N)=O` ?
true

Could you check what this test reported for `CN(C)N=Nc1nc[nH]c1C(N)=O` ?
false

Field: outcome | Entry: `O=C(O)c1ccc(Nc2ncc3c(n2)-c2ccc(Cl)cc2C(c2c(F)cccc2F)=NC3)cc1`
false

Tell me the recorded outcome of this test for `CCC(CC)[C@H](NC(C)=O)[C@@H]1[C@H](O)[C@@H](C(=O)O)C[C@H]1N=C(N)N` .
false
